Listing of recorded relative viability by entry.
Tested on: NCI-H596
Assay: relative viability (nuclei count vs DMSO), 5 days (fraction); higher = more cells survive
Settings: first compound 0.8 µM
Hey, just send me the number, nothing else.

compound | relative viability
COc1nc(C)cnc1NS(=O)(=O)c1cccnc1-c1ccc(-c2nnco2)cc1 [Zibotentan] + CS(=O)(=O)CCNCc1ccc(-c2ccc3ncnc(Nc4ccc(OCc5cccc(F)c5)c(Cl)c4)c3c2)o1 [Lapatinib] (partner 2 µM) | 1.08

Shifting focus to the compound that follows.
Task item: Using the record for COc1nc(C)cnc1NS(=O)(=O)c1cccnc1-c1ccc(-c2nnco2)cc1 [Zibotentan] + NC(=O)Nc1cc(-c2cccc(F)c2)sc1C(=O)N[C@H]1CCCNC1 [AZD7762] (partner 0.2 µM) , report its relative viability.
Reply: 1.06
